Reported growth inhibition values are given for each entry in this list.
- PROTOCOL_SUMMARY: NCI Yeast Anticancer Drug Screen. Data for the mec2-1 strain (AID 157)
- STUDY_CONDITIONS: S. cerevisiae mec2-1 strain, at 50.0 µM, hits give high values
The panel holds about 79,000 compounds, 15% with a hit somewhere; the sample as a whole holds those more often. Calls of active or inactive are those of the source. Rule as the data show it: active = growth inhibition above about 70%; inactive = the rest.

Solved cases (3 shown):
COMPOUND: Nc1ncnc2c1ncn2C1C=CC(COS(N)(=O)=O)C1 (stereo not given)
growth inhibition: 21.9% (inactive)

COMPOUND: CCC(=N)C(c1ccccc1)(c1ccccc1)C(C)CN(C)C (stereo not given)
growth inhibition: -7.3% (inactive)

COMPOUND: CC1=NN(C(=O)c2ccccc2O)C(=O)/C1=C/c1cccc([N+](=O)[O-])c1
growth inhibition: 26.9% (inactive)

Short answer for CC(=O)NC1CCC2CCCCC2C1 (stereo not given) : growth inhibition was -3.15% (inactive)

Short answer for O=S(=O)(c1ccc(OCCOc2ccc(S(=O)(=O)N3CCOCC3)cc2)cc1)N1CCOCC1 : growth inhibition was 7.75% (inactive)

Short answer for CCCCc1c(OC)cc(O)c2c1C(=O)c1[nH]c(C(=O)O)c(O)c(=O)c1C2=O : growth inhibition was -19.3% (inactive)

Short answer for Brc1cccc(C2SCc3nc4ccccc4n32)c1 (stereo not given) : growth inhibition was 16.9% (inactive)

Short answer for N#Cc1cn(C2OC(CO)C3OC32)c2ncnc(NC(=O)c3ccccc3)c12 (stereo not given) : growth inhibition was 9.1% (inactive)

Short answer for O=C1OC(c2ccc([N+](=O)[O-])cc2)=N/C1=C\c1cccc([N+](=O)[O-])c1 : growth inhibition was 20.9% (inactive)

Short answer for CCOC(=O)C1=C(N)n2c(s/c(=C/c3ccc(N(C)C)cc3)c2=O)=C(C(=O)OCC)C1c1ccc(N(C)C)cc1 (stereo not given) : growth inhibition was -19.1% (inactive)
